target.desc: LXRb:RXRa (Homo sapiens, UniProt P55055;P19793 full;full)
Sequence (P55055 whole entry, chain 1 of 2): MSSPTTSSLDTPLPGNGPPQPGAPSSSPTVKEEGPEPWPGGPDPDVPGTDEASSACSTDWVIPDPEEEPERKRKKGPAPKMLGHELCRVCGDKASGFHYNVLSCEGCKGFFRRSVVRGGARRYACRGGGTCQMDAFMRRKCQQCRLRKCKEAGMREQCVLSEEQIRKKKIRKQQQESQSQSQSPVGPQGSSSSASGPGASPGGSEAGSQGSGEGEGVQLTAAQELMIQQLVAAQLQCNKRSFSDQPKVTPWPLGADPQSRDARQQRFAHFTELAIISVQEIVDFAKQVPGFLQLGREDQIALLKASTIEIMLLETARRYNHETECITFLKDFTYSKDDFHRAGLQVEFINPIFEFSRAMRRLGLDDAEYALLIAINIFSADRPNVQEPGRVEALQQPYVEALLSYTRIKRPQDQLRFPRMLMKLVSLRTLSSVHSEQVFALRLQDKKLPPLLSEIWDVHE
Sequence (P19793 whole entry, chain 2 of 2): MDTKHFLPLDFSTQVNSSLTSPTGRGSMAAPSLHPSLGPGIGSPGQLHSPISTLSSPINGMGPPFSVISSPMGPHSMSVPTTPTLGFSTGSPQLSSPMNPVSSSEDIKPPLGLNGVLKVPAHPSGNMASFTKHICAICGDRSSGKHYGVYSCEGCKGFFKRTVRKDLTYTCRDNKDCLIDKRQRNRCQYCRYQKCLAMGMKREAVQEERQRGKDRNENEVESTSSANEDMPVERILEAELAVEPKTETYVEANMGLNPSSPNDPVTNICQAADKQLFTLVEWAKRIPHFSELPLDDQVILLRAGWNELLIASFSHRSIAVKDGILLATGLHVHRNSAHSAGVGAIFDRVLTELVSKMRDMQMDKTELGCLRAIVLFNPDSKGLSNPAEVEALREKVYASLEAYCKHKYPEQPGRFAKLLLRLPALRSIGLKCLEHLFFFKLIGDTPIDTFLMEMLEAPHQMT
assay.notes: no ligand; PBM; 270 nM : 90 nM RXRa; PBS pH 7.4, 2% milk, 0.02% Triton X-100, 1 mM DTT, BSA, 0.4 mg/ml salmon testes DNA
measurement.parameters: tags: His kept;His cleaved; copies: 1;1; label: surface-attached array probe

binder	binding signal
NRC3_random_hg19_28_o1 (dsDNA) DNA 1: GCCATCTAAAGCCTTGACAGGCTGGGATAGCTGCTTGCGATTGACAGCGTAGAATGAAGG DNA 2: CCTTCATTCTACGCTGTCAATCGCAAGCAGCTATCCCAGCCTGTCAAGGCTTTAGATGGC	-1 PBM z-score against 500 random probes

The measurements presented in this section are drawn from paper PMC6555819.
